- study_system: CB1 receptor
- Construct: IC50 [nM]; radioligand [3H]-CP55940
- experiment_notes: In-vitro determination of affinity to CB1/CB2-receptors (radioligand [3H]-CP55940 binding)
- test_parameters: binding data per pharmacological methods part I, table does not say whether human transfected receptor or rat cerebellum
property_measured: IC50 (nM)

1. O=C(C1=NN(c2ccc(Cl)cc2Cl)C(c2ccc(Cl)cc2)C1)N1CCC2CCCCC2C1 (stereo not shown) [Example 22] ... 79.4
2. O=C(NN1CCCCC1)C1=NN(c2ccc(Cl)cc2Cl)C(c2ccc(Br)cc2)C1 (stereo not shown) [Example 60A] ... 44
3. COc1ccc(C2CC(C(=O)NN3CCc4ccccc43)=NN2c2ccc(Cl)cc2Cl)cc1.Cl (stereo not shown) [Example 112, hydrochloride] ... 106
4. O=C(C1=NN(c2ccc(Cl)cc2Cl)C(c2ccc(Cl)cc2)C1)N1CCCc2ccccc21 (stereo not shown) [Example 81] ... 708
